tested-on: CFTR ΔF508 mutant (Homo sapiens, UniProt P13569, DEL508-508)
Construct: expressed in transfected cells; host or cells: CFBE41o- cells, adenoviral transduction
Sequence (P13569 with tags, fused parts or gaps DEL508-508): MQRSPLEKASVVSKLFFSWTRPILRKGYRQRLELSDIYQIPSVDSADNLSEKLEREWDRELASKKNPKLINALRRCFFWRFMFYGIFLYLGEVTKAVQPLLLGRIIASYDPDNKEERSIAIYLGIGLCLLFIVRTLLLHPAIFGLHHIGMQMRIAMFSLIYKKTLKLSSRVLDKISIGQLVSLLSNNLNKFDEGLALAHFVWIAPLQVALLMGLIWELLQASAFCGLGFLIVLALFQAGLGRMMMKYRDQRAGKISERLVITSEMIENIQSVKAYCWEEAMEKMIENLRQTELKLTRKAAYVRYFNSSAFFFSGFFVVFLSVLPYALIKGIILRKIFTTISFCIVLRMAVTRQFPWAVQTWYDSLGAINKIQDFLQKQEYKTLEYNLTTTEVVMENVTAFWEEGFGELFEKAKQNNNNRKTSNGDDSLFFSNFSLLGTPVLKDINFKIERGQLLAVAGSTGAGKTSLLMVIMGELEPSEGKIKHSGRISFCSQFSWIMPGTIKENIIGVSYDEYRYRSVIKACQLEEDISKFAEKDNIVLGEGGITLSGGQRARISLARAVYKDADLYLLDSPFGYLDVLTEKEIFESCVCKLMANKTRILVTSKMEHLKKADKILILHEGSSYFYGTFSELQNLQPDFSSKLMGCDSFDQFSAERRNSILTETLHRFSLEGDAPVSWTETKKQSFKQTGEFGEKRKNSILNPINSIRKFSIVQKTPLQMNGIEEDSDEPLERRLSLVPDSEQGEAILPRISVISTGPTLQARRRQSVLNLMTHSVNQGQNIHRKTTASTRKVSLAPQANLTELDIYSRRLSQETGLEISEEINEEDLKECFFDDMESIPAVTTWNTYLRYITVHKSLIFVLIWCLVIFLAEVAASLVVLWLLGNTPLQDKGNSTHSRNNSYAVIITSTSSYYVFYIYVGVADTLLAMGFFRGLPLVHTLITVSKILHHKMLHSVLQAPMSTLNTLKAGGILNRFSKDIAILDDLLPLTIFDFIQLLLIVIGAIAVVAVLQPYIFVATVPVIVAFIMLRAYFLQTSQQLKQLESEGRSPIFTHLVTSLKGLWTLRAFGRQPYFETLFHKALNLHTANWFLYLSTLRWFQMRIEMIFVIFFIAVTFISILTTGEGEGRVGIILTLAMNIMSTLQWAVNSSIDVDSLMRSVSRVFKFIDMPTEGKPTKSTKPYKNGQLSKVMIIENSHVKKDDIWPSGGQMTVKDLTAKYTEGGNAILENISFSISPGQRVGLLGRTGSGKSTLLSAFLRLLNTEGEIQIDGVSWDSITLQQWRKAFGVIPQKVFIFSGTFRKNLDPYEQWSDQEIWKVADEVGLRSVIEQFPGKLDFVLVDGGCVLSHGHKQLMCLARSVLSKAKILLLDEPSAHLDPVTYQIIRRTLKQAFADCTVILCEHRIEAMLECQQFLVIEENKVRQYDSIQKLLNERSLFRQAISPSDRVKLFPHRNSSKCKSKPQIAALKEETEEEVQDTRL
experimental-details: YFP-halide influx assay for the CFTR-ΔF508 mutation (CFBE41o- cells)
Format: cell-based
test-conditions: forskolin 10.67 μM

molecule | unit-label | % Activation
CC1(O)CN(C(=O)c2ncc(S(=O)(=O)c3ccc(C(F)(F)F)cc3)cc2N)C1 | % | 97.2
Nc1cc(S(=O)(=O)c2ccc(OC(F)(F)F)cc2)cnc1C(=O)N[C@@H]1CCOc2ccccc21 | % | 98.8
Nc1cc(S(=O)(=O)N2CCC(C(F)(F)F)CC2)cnc1C(=O)NCC(O)C(F)(F)F (stereo not shown) | % | 104.0
Nc1cc(S(=O)(=O)c2ccc(OC(F)(F)F)cc2)cnc1C(=O)NCC1COCCO1 (stereo not shown) | % | 109.5

----------
Entries and their EC50
tested-on: CFTR G551D mutant (Homo sapiens, UniProt P13569, G551D)
Construct: expressed in transfected cells; host or cells: HEK293 cells, reverse transfection with plasmids
Sequence (P13569 whole entry G551D): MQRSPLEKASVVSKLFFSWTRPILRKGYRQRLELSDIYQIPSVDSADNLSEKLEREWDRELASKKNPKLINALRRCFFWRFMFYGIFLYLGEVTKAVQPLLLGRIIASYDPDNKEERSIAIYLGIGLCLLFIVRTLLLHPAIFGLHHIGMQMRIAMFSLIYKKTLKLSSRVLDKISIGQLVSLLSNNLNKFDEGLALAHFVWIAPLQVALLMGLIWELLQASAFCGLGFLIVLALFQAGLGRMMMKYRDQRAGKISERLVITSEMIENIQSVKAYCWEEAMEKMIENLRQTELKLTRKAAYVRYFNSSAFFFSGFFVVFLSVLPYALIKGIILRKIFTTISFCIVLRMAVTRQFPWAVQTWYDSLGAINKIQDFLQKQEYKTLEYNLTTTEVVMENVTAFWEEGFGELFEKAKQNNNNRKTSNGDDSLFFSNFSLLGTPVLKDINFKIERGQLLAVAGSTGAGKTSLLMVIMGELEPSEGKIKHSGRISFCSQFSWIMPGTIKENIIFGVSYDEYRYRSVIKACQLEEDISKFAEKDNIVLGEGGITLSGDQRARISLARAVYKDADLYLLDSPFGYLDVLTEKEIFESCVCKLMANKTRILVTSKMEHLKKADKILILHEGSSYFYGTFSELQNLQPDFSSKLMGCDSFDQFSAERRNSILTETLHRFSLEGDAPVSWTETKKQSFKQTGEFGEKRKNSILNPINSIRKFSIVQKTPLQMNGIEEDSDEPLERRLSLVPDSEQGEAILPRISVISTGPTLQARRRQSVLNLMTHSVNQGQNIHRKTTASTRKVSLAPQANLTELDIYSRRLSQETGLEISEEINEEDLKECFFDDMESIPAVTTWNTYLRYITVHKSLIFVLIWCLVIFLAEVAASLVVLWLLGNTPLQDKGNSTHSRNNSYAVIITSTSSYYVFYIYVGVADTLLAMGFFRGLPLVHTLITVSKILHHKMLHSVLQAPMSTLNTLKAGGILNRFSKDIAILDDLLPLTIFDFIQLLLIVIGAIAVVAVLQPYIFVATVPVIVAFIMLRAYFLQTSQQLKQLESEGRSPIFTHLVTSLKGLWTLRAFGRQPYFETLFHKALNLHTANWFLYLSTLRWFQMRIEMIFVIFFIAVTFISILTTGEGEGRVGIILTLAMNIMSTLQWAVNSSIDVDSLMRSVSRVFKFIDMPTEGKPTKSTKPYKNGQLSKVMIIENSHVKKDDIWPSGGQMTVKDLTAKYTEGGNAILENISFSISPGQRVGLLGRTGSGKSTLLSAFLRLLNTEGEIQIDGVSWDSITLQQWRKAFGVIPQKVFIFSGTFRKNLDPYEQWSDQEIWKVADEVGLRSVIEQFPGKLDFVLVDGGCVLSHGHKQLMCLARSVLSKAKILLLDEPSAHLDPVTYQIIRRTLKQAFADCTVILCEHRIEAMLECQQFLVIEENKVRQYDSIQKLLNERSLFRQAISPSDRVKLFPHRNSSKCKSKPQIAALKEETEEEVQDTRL
experimental-details: YFP-halide influx assay for the CFTR-G551D mutation (HEK293 cells)
Type: cell-based
test-conditions: forskolin 10.67 μM
observed-property: EC50 (nM)

molecule | censoring-sign | test-result
CC(C)NC(=O)CNC(=O)c1ncc(S(=O)(=O)c2ccc(C(F)(F)F)cc2)cc1N [Compound 104] | > | 10000
C[C@H]1CCCN1S(=O)(=O)c1cnc(C(=O)NCC(O)C(F)(F)F)c(N)c1 (stereo partly shown) [Compound 181] | = | 1330
Nc1cc(S(=O)(=O)c2ccc(C(F)(F)F)cc2)cnc1C(=O)N1CC(F)(F)C1 [Compound 103] | = | 368
CC(C)(O)CNC(=O)c1ncc(S(=O)(=O)c2cccc(F)c2)cc1N [Compound 39] | > | 10000

----------
# Lookup of reported % Activation keyed by entry
tested-on: CFTR ΔF508 mutant (Homo sapiens, UniProt P13569, DEL508-508)
Construct: expressed in transfected cells; host or cells: CFBE41o- cells, adenoviral transduction
experimental-details: YFP-halide influx assay for the CFTR-ΔF508 mutation (CFBE41o- cells)
Format: cell-based
test-conditions: forskolin 10.67 μM
observed-property: % Activation (%)

molecule | test-result
Nc1cc(S(=O)(=O)c2ccccc2)cnc1C(=O)N1CC(O)(C(F)(F)F)C1 | 104.2
C[C@H]1CCCN1S(=O)(=O)c1cnc(C(=O)NCC(O)C(F)(F)F)c(N)c1 (some centres unmarked) | 90.6
CC(C)(O)C1CN(C(=O)c2ncc(S(=O)(=O)c3ccc(C(F)(F)F)cc3)cc2N)C1 | 115.2
CC(C)OCC(O)CNC(=O)c1ncc(S(=O)(=O)c2ccc(OC(F)(F)F)cc2F)cc1N (centres unmarked) | 103.5
CC1CCCN(S(=O)(=O)c2cnc(C(=O)NCC(O)C(F)(F)F)c(N)c2)C1 (centres unmarked) | 112.7
Nc1cc(S(=O)(=O)c2ccc(OC(F)(F)F)cc2)cnc1C(=O)N1CC2(COC2)C1 | 92.0
Nc1cc(S(=O)(=O)N2CCC(OC(F)(F)F)CC2)cnc1C(=O)NCC(O)C(F)(F)F (centres unmarked) | 107.0
COC[C@H](O)CNC(=O)c1ncc(S(=O)(=O)c2ccccc2OC(F)(F)F)cc1N | 102.1
C[C@H](O)CNC(=O)c1nc(C2CC2)c(S(=O)(=O)c2ccc(F)cc2)cc1N | 111.0
Nc1cc(S(=O)(=O)c2ccc(F)cc2)cnc1C(=O)NCC(O)C(F)(F)F (centres unmarked) | 101.0
CC(C)OCC(O)CNC(=O)c1ncc(S(=O)(=O)c2ccc(C(F)(F)F)cc2)cc1N (centres unmarked) | 118.5
Nc1cc(S(=O)(=O)N2CC[C@H](F)C2)cnc1C(=O)NCC(O)C(F)(F)F (some centres unmarked) | 97.0
Nc1cc(S(=O)(=O)c2ccc(OC(F)(F)F)cc2)cnc1C(=O)NCC1(O)CC1 | 109.0
CC(C)CNC(=O)c1ncc(S(=O)(=O)c2ccc(C(F)(F)F)cc2)cc1N | 99.9
Nc1cc(S(=O)(=O)c2ccccc2OC(F)(F)F)cnc1C(=O)N1CC(O)C1 | 112.0
Nc1cc(S(=O)(=O)c2ccc(OC(F)(F)F)cc2)cnc1C(=O)NCC(O)C1CCOCC1 (centres unmarked) | 110.4
C[C@H](O)CCNC(=O)c1ncc(S(=O)(=O)c2ccc(OC(F)(F)F)cc2)cc1N | 95.6
Nc1cc(S(=O)(=O)N2CCC(F)CC2)cnc1C(=O)NCC(O)C(F)(F)F (centres unmarked) | 98.7
Nc1cc(S(=O)(=O)c2ccc(C(F)(F)F)cc2)cnc1C(=O)NC[C@@H](O)COCC(F)(F)F | 105.0
Nc1cc(S(=O)(=O)c2ccc(C(F)(F)F)cc2)cnc1C(=O)N1CC(O)(C(F)(F)F)C1 | 103.5
Nc1cc(S(=O)(=O)c2ccc(OC(F)(F)F)cc2)cnc1C(=O)NC1COC1 | 16.9
Nc1cc(S(=O)(=O)c2ccc(OC(F)(F)F)cc2)cnc1C(=O)NC(CO)CO | 73.9
CC(C)(C)CNC(=O)c1ncc(S(=O)(=O)c2ccc(C(F)(F)F)cc2)cc1N | 99.7
Nc1cc(S(=O)(=O)c2ccc(OC(F)(F)F)cc2)cnc1C(=O)N1CC2(CCOC2)C1 | 114.0
Nc1cc(S(=O)(=O)c2ccc(C(F)(F)F)cc2)cnc1C(=O)NCCOCC1CCCO1 (centres unmarked) | 96.6
Nc1cc(S(=O)(=O)c2ccc(OC(F)(F)F)cc2)cnc1C(=O)N1CCC(F)(F)C1 | 92.6
CC1CN(C(=O)c2ncc(S(=O)(=O)c3ccc(OC(F)(F)F)cc3)cc2N)C1 | 92.9
CC(C)OCCNC(=O)c1ncc(S(=O)(=O)c2ccc(C(F)(F)F)cc2)cc1N | 101.5
Nc1cc(S(=O)(=O)c2ccc(F)cc2)cnc1C(=O)NCC1(O)CC1 | 94.6
CC(C)(CO)NC(=O)c1ncc(S(=O)(=O)c2ccc(C(F)(F)F)cc2)cc1N | 81.0
Nc1cc(S(=O)(=O)c2ccc(OC(F)(F)F)cc2F)cnc1C(=O)N1CC(O)C1 | 98.8
COC1CN(C(=O)c2ncc(S(=O)(=O)c3ccc(OC(F)(F)F)cc3)cc2N)C1 | 105.5
